The measurements presented in this section are drawn from patent US20180162928A1.

# system_name: T1, recombinant biotinylated PD-L1 (rhPD-L1/Fc Chimera, R&D Systems 156-B7) (human, UniProt Q9NZQ7 19-238, biotinylated (sites not given))
# T1 construct: Bought Fc chimera; also called human PD-L1
# protocol_details: ELISA, lysate on plate-bound antigen
endpoint: ELISA PD-L1 Fc (RSU)
All answers are understood in RSU, so give the number only.

Guide cases for ELISA PD-L1 Fc (RSU), answers given:
binder	measurement_unit	ELISA PD-L1 Fc (RSU)
ISOP194BR9P1H4 (designed binder, not shown: small tags and cut ends, FN3 domain; E. coli lysate in the ELISA) LPAPKNLVVSRVTEDSACLSWTTAFHNEYFDSFLIQYQESEKVGEAIVLTVPGSERSYDLTGLKPGTEYTVSIYGVYSRPKAEFTSNPLSAIFTT	RSU	4.06e+06
ISOP194GR9P1C11 (designed binder, not shown: small tags and cut ends, FN3 domain; E. coli lysate in the ELISA) LPAPKNLVVSRVTEDSARLSWTAPDAAFDSFWIFYNERWQNGEAIRLTVPGSERSYDLTGLKPGTEYWVLIGGVKGGLKSSPLWAWFTT	RSU	164000
ISOP121BR5P1H6 (designed binder, not shown: small tags and cut ends, FN3 domain; E. coli lysate in the ELISA) LPAPKNLVVSRVTEDSARLSWGYIDVSYFDSFLIQYQESEKVGEAIVLTVPGSERSYDLTGLKPGTEYTVSIYGVYSRPKAEFTSNPLSAIFTT	RSU	74600

Shift focus to the following entry.
Report measured ELISA PD-L1 Fc (RSU); entry is ISOP121BR5P1D1 (designed binder, not shown: small tags and cut ends, FN3 domain; E. coli lysate in the ELISA) LPAPKNLVVSRVTEDSARLSWKWGGEFFDSFLIQYQESEKVGEAIVLTVPGSERSYDLTGLKPGTEYTVSIYGVYQRNWHHWYSNPLSAIFTT 186000
